Answer each item with its documented % Ctrl, EGFR(G719C).
- tested target: kinases (Homo sapiens, UniProt P00533, G719C)
- Construct: purchased Eurofins/DiscoveRx; host or cells: E. coli BL21-derived host (T7 phage display) for most kinases; HEK-293 for the rest
- assay protocol: KINOMEscan kinase binding assay (Eurofins/DiscoveRx), % Ctrl
- conditions used: 1 μM; EGFR(G719C)
Could you give me the number in % Ctrl? Just the number is fine.

Form: Entry = Cc1cc2c([nH]1)/C=C1\C(=O)Nc3cnc(nc31)N(C)CCCOCCN(C)C2=O | System = kinases (Homo sapiens, UniProt P00533, G719C) | % Ctrl, EGFR(G719C) = ____ 71

Also Cc1cc2c([nH]1)/C=C1\C(=O)Nc3ccc(cc31)-c1cnn(C)c1CNCCN(C)C2=O ? 8

Also Cc1cc2c([nH]1)/C=C1\C(=O)Nc3cnc(cc31)-c1cnn(C)c1COCCNC2=O ? 90

Also Cc1cc2c([nH]1)/C=C1\C(=O)Nc3cc(Cl)c(cc31)OCCO[C@@H](C(=O)N[C@@H]1CCNC1)CN(C)C2=O ? 90

Also Cc1cc2c([nH]1)/C=C1\C(=O)Nc3ccc(nc31)-c1ccccc1OCCCNC2=O ? 93

Also Cc1cc2c([nH]1)/C=C1\C(=O)Nc3ccc(cc31)-c1cnn(C)c1CN(C)CCN(C)C2=O ? 86

Also Cc1cc2c([nH]1)/C=C1\C(=O)Nc3ccc(cc31)-c1ccnn1CCNCCNC2=O ? 92

Also Cc1cc2c([nH]1)/C=C1\C(=O)Nc3ccc(cc31)-c1ccnn1CCOCCN(C)C2=O ? 88

* * *

Answer each item with its documented % Ctrl, ABL1(T315I)-nonphosphorylated.
- tested target: kinases (Homo sapiens, UniProt P00519, T315I)
- Construct: purchased Eurofins/DiscoveRx; host or cells: E. coli BL21-derived host (T7 phage display) for most kinases; HEK-293 for the rest
- assay protocol: KINOMEscan kinase binding assay (Eurofins/DiscoveRx), % Ctrl
- conditions used: 1 μM; target ABL1(T315I)-nonphosphorylated
- Description: Kinase binding assays were performed at Eurofins/DiscoveRx using the general KINOMEscan Protocol (Fabian, M. A. et al., “A small molecule-kinase interaction map for clinical kinase inhibitors,” Nat. Biotechnol. 2005, 23(3):329-36). For most assays, kinase-tagged T7 phage strains were prepared in an E. coli host derived from the BL21 strain. […] The kinase concentration in the eluates was measured by qPCR. […]
Could you give me the number in % Ctrl? Just the number is fine.

So what's the measured % Ctrl, ABL1(T315I)-nonphosphorylated for this one? Cc1cc2c([nH]1)/C=C1\C(=O)Nc3cnc(cc31)-c1cnn(C)c1CN(C)CCN(C)C2=O 0

Also Cc1cc2c([nH]1)/C=C1\C(=O)Nc3cc(Cl)c(cc31)SCCOCCN(C)C2=O ? 0.3

Also Cc1cc2c([nH]1)/C=C1\C(=O)Nc3ccc(cc31)-c1cnn(C)c1OCCCN(C)C2=O ? 1.4

Also Cc1cc2c([nH]1)/C=C1\C(=O)Nc3ccc(cc31)-c1c(noc1C(C)C)COCCN(C)C2=O ? 90

Also CN1CCOc2cc3c(cc2Cl)NC(=O)/C3=C\c2[nH]ccc2C(=O)N(C)CC1 ? 0.6

* * *

- tested target: kinases (Homo sapiens, UniProt P42684)
- Construct: purchased Eurofins/DiscoveRx; host or cells: E. coli BL21-derived host (T7 phage display) for most kinases; HEK-293 for the rest
- Sequence (P42684 whole entry): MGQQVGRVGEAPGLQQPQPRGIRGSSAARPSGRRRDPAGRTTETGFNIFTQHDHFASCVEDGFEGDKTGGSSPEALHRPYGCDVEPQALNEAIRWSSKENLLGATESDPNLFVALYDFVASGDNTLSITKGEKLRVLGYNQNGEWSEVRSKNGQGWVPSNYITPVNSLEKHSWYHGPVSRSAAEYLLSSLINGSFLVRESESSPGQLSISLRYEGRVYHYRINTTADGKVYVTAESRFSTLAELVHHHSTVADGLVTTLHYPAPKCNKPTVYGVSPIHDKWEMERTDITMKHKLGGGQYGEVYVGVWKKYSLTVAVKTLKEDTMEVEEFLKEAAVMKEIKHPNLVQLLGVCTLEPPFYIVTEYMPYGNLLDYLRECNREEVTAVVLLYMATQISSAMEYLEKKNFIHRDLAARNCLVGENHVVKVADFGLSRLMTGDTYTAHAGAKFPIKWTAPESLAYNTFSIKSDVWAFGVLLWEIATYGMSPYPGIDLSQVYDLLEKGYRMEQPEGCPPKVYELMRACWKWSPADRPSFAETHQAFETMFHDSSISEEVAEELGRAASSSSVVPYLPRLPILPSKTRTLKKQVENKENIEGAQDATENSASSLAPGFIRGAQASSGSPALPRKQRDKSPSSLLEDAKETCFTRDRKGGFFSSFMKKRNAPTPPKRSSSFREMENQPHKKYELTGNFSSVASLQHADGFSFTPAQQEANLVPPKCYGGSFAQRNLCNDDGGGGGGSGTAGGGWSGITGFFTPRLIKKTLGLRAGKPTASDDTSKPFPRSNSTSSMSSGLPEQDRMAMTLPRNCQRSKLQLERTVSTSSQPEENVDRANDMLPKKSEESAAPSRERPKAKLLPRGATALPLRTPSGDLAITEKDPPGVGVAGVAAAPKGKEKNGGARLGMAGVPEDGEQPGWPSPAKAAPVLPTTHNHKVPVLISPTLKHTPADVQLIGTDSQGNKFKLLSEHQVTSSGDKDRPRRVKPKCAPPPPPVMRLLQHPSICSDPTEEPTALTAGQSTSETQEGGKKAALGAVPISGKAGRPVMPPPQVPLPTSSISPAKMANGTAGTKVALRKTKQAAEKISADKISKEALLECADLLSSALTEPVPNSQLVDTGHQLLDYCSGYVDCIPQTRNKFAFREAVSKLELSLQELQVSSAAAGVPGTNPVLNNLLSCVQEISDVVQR
- assay protocol: KINOMEscan kinase binding assay (Eurofins/DiscoveRx), % Ctrl
- conditions used: 1 μM; ABL2
Answer each item with its documented % Ctrl, ABL2.
Could you give me the number in % Ctrl? Just the number is fine.

So what's the measured % Ctrl, ABL2 for this one? Cc1cc2c([nH]1)/C=C1\C(=O)Nc3ccc(cc31)-c1c(noc1C)COCCN(C)C2=O [Ex. 128] 91

Also Cc1cc2c([nH]1)/C=C1\C(=O)Nc3ccc(cc31)-c1ccnn1CCOCCNC2=O [Ex.39] ? 89

Also Cc1cc2c([nH]1)/C=C1\C(=O)Nc3ccc(cc31)-c1cnn(C)c1COCCN(C)C2=O [Ex. 124] ? 2.4

Also Cc1cc2c([nH]1)/C=C1\C(=O)Nc3ccc(cc31)OCCOCCNC2=O [Ex. 129] ? 96

Also Cc1cc2c([nH]1)/C=C1\C(=O)Nc3cnc(cc31)-c1cnn(C)c1COCCNC2=O [Ex.123] ? 100

Also CNC(=O)[C@H]1CN(C)C(=O)c2cc(C)[nH]c2/C=C2\C(=O)Nc3cc(Cl)c(cc32)OCCO1 [Ex. 135] ? 85

Also Cc1cc2c([nH]1)/C=C1\C(=O)Nc3cc(Cl)c(cc31)OCCO[C@@H](C(=O)N(C)C)CN(C)C2=O [Ex. 137] ? 99

Also Cc1cc2c([nH]1)/C=C1\C(=O)Nc3ccc(cc31)-c1cnn(C)c1CN(C)CCN(C)C2=O [Ex. 126] ? 0.9

Also Cc1cc2c([nH]1)/C=C1\C(=O)Nc3cc(Cl)c(cc31)OCCO[C@@H](C(=O)NC1CCNCC1)CN(C)C2=O [Ex. 134] ? 77

Also Cc1cc2c([nH]1)/C=C1\C(=O)Nc3ccc(cc31)-c1ccnn1CCOCCN(C)C2=O [Ex. 41] ? 77

Also Cc1cc2c([nH]1)/C=C1\C(=O)Nc3ccc(cc31)O[C@@H](C)COCCN(C)C2=O [Ex. 92] ? 43

Also Cc1cc2c([nH]1)/C=C1\C(=O)Nc3cc(Cl)c(cc31)OCCO[C@@H](C(=O)N[C@@H]1CCNC1)CN(C)C2=O [Ex. 136] ? 77

Also Cc1cc2c([nH]1)/C=C1\C(=O)Nc3cc(Cl)c(cc31)OCCO[C@@H](C(=O)NC1CNC1)CN(C)C2=O [Ex. 133] ? 96
